Data origin: the supplement of paper PMC10065799

Here, each record is paired with measured phosphorylation enrichment data.
biological target: EPHB1 (UniProt P54762); assay: phosphorylation enrichment, bacterial display (enrichment ratio); higher = better substrate or ligand; peptides without Tyr show the background;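 further: 11-residue human phosphosite peptides and single-mutation variants displayed on the E. coli surface, counted by deep sequencing, each peptide's frequency after selection divided by its frequency in the unselected input library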;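 further: frequency after pTyr selection over input frequency; kinase dosed for 20-30% of maximal phosphorylation in three min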
Sequence (P54762 whole entry, looked up): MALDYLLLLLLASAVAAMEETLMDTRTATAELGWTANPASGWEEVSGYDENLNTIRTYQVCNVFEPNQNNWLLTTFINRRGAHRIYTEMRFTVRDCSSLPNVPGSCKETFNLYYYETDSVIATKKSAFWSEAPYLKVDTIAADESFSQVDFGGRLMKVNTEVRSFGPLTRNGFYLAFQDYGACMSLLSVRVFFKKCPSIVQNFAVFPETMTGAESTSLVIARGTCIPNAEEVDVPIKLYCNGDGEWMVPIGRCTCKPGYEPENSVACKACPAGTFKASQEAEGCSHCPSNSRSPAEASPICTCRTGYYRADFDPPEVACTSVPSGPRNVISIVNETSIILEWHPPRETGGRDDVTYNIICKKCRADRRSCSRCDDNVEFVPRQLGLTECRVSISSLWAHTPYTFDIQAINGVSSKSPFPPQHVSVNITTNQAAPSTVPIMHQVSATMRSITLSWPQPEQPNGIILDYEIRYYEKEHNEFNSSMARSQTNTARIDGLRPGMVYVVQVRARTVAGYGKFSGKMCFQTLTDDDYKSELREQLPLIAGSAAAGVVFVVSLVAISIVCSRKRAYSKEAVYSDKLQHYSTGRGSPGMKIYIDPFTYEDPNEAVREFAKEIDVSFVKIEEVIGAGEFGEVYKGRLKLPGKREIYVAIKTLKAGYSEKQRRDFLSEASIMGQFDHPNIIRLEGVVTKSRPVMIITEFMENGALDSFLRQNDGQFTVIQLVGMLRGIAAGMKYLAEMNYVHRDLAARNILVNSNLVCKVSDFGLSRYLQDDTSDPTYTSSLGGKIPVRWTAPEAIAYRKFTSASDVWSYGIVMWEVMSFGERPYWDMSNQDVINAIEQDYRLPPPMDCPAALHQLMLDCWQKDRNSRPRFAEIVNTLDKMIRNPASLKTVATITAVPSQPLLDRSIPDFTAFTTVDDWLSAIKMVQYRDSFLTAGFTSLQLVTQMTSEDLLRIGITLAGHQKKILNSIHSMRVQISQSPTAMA

Example results:
- MDYRSYPREYG [RBM10_Y44]: 0.337
- DTMQTYNGNDE [TSPAN7_Y131_A127T]: 0.589
- GRLVEYDIDEV [SMS_Y134]: 0.709
- ETEMLYGSAPR [PRC1_Y464]: 0.433
- GLSSAYGDLTS [KRT8_Y427_G429D]: 0.56

Form: sequence = RFLRGYRQDAY [HLA-A_Y137] ; phosphorylation enrichment = 0.43

Field phosphorylation enrichment (entry VLPIDYYFPPQ [AR_Y552] ) reads 3.48

Value of phosphorylation enrichment reported for the sequence PLDGEYFTRQI [TP53_Y327_L330R] is 0.441

The value of phosphorylation enrichment measured for the sequence SLMNQYVNKEF [RAB7A_Y28_K32E] turned out to be 0.392

Entry under test: QFKGKYLAKHN [CASK_Y712_D710G_YF] . Its phosphorylation enrichment was 0.49

Data point: NPSFNYEIVNQ [DYNC1H1_Y3379_R3384Q_YF] ; phosphorylation enrichment = 3.9

For record PELINYHQHFS [BTK_Y361_N365Y_YF] the listed phosphorylation enrichment is 0.723

Looking up LFIGQYSGKKE [L1CAM_Y1229_S1224L] , I see its phosphorylation enrichment listed as 0.984

Record DLSEVYKPRRK [CCDC93_Y176] . Reported phosphorylation enrichment: 0.513

Entry SISLRYEGRVF [ABL1_Y167_YF] , phosphorylation enrichment reported as 0.636

sequence HKLSFNEFDFE [BTK_Y40_Y40N_YF] , phosphorylation enrichment observed: 0.829

phosphorylation enrichment reported for this sequence MAFDRYAAICS [OR8H2_Y123_H120Y_YF] : 0.893

The reported phosphorylation enrichment of the sequence NHFKRYNLCAE [PTEN_Y68_I67R_YF] was 0.384

Noted for IMWDSYTTNKV [GNB3_Y85_V81M] : its phosphorylation enrichment reads 0.544

Quick note, phosphorylation enrichment for HYEDGYPGGSD [CTNND1_Y221] landed at 0.796

Notebook: SVVVSYEPPEV [TP53_Y220_P219S] , phosphorylation enrichment read as 0.519

phosphorylation enrichment reported for this sequence DDDPEDRKFLE [UPF3B_Y160_Y160D] : 0.586

In plain terms, PSQRPYVYYYS [PTEN_Y174_R173P] has a documented phosphorylation enrichment of 0.652

phosphorylation enrichment for SETSRYLSDLF [KCNJ3_Y67] is 0.726

The sequence TVLWWYTGTRP [UGT1A1_Y337_R336W] showed phosphorylation enrichment equal to 0.458

phosphorylation enrichment measured on TEDELYQLSLQ [RASGRP2_Y378] = 0.717

CGTPDNIAPEI [PRKCG_Y521_Y521N] has a reported phosphorylation enrichment of 0.72

Short answer for RRNEEYCLLAS [ITK_Y198_D202A] : phosphorylation enrichment was 1.55

KSVVTYSPTTG [ITGB3BP_Y32_I30V] yielded phosphorylation enrichment of 0.427

Entry AEVDTYCRHNF [HLA-DRB1_Y107_A103E_YF] — recorded phosphorylation enrichment = 0.594

GET /value?item= VTRDEYPSNPM [CEMIP2_Y1015_I1010V] &field=phosphorylation enrichment returns 0.411

// AVAFVYFKSIG [ADGRL4_Y301_YF] : phosphorylation enrichment value = 0.911

The reported phosphorylation enrichment of the sequence EKQVAYCPSGR [ROS1_Y2323_K2328R] was 0.511

* * *

target: Fyn (UniProt P06241); experiment: phosphorylation enrichment, bacterial display (enrichment ratio); higher = better substrate or ligand; peptides without Tyr show the background
Sequence (P06241 whole entry, looked up): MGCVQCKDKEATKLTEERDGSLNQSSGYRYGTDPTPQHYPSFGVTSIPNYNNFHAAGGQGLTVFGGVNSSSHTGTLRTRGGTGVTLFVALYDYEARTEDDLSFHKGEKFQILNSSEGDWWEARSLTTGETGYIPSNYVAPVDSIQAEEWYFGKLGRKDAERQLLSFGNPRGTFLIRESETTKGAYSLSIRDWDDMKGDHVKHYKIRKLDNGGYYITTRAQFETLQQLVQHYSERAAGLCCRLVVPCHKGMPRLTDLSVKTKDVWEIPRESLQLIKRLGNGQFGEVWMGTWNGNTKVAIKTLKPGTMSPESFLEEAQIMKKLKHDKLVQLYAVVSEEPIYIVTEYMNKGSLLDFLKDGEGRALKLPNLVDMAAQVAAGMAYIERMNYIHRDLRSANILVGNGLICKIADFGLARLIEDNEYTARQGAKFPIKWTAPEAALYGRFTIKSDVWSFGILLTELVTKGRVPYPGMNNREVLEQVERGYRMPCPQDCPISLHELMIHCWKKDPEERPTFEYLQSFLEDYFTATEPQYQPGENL
Binning scheme for phosphorylation enrichment: Low = under 0.5, Mid = from 0.5 up to 0.9, High = 0.9 and over

Solved cases (3 shown):
* SLNEVYTKNKT [MSH2_Y563_E562V] | Low
* LTFDEYRNISQ [ANXA3_Y216] | Mid
* PHIKTYMRPSP [TDP1_Y497] | Mid

Query block: For this sequence, which bin applies? PSALGYSPSLH [LLGL2_Y40_R45H]
Result block: Low

Query block: Hello team, could you let me know which band the following sequence falls into: TVFSDYLHPQF [CCPG1_Y569_YF]
Result block: Mid

Query block: Band for the recorded phosphorylation enrichment of VFAPDYIAGVS [NOB1_Y366] ?
Result block: Mid

Query block: Could you tell me which band GTFVIYVRFSG [FLNB_Y1687_G1691S_YF] belongs to?
Result block: Low

Query block: # bin label for RLEKEYFDQHF [NPC1_Y394]
Result block: Low

Query block: Hey, which category is KRIKSYNQEND [RPGRIP1L_Y448_L447S] in, do you know?
Result block: Low

Query block: Bin this entry: KVVQEYERVII [NPHS2_Y131]
Result block: Low

Query block: Hey, which category is PGDGEYFTLQI [TP53_Y327_L323G] in, do you know?
Result block: High

Query block: Consider QSSALYEDCYL [ASS1_Y83_R86C] . To which phosphorylation enrichment class does it belong?
Result block: High

Query block: Sort RKGGSYTQAAS [HLA-A_Y344] into one of the categories.
Result block: Low

Query block: Please indicate the class for ACCLLYCGDVV [TUBA4A_Y319_R320C] based on its phosphorylation enrichment.
Result block: High

* * *

tested on: c-Src; experiment: phosphorylation enrichment, bacterial display (enrichment ratio); higher = better substrate or ligand; peptides without Tyr show the background
Decision: phosphorylation enrichment compared against 0.5; not below it gives TRUE, below it gives FALSE.

* MAFDRYVAVCA [OR52J3_Y125] | FALSE
* GHLFAYDWIRI [BEST1_Y227_S231R_YF] | TRUE
* YETVKYFNNER [ABCB7_Y345] | TRUE
* TLSGTYQYIIA [FOXL2_Y81_I80T] | TRUE
* LVLIKYLPEWT [PSEN1_Y240_F237L] | FALSE
* IMNLLYHVVGW [GBA_Y412_T408M] | TRUE
* FEEDSYVTRSQ [RET_Y905_K907T_YF] | TRUE
* VKPHRYRPGTV [H3-5_Y41] | FALSE

Query block: Hello, I need to know if SVKVFYKKCWS [EPHA7_Y202_YF] has measured phosphorylation enrichment not below 0.5. Thanks!
Result block: TRUE

Query block: Please tell me: is the sequence FFDANYDGKEF [MAPRE2_Y162_YF] at or over 0.5 in terms of phosphorylation enrichment?
Result block: FALSE

Query block: Has PTTKTYFPHFF [HBA1_Y43_D48Y_YF] a recorded phosphorylation enrichment greater than or equal to 0.5?
Result block: FALSE

* * *

biological target: MERTK (UniProt Q12866); assay: phosphorylation enrichment, bacterial display (enrichment ratio); higher = better substrate or ligand; peptides without Tyr show the background
Sequence (Q12866 whole entry, looked up): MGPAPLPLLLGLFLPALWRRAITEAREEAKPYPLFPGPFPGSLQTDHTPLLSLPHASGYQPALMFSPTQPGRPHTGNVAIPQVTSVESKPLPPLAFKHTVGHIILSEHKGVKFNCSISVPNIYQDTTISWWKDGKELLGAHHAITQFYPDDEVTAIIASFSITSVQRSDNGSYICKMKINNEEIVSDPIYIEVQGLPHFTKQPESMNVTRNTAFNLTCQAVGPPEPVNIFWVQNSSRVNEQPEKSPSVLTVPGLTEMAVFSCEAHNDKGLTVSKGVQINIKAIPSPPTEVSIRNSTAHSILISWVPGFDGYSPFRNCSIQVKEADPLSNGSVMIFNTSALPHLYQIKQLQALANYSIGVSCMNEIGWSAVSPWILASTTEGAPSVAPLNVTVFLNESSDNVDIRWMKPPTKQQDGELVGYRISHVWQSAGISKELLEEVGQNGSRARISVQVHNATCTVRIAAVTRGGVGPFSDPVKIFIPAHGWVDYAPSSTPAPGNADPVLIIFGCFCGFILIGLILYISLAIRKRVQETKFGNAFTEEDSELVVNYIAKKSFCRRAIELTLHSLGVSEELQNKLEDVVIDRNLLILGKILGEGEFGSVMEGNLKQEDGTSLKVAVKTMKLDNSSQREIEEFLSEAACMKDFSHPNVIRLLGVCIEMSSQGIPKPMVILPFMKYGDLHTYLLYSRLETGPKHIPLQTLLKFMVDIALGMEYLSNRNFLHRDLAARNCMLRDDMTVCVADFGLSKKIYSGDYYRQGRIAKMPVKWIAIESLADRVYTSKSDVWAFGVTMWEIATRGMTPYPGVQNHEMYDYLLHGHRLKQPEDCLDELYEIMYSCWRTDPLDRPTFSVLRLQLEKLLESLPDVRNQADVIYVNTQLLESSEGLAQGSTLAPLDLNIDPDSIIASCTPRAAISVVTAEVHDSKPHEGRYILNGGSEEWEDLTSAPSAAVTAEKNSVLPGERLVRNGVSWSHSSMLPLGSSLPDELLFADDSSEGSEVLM
Grouping by measured phosphorylation enrichment is done with the following cut points: low interval: < 0.4; middle interval: ≥ 0.4 and < 0.5; high interval: ≥ 0.5

* SAVTGYRVNVI [FN1_Y937_D940N] | low interval
* SLMNQYVNKEF [RAB7A_Y28_K32E] | low interval

Query block: Which class holds LYNQDYPIHCV [GATM_Y227_S231C] ?
Result block: middle interval

Query block: Could you place KDFETYQSFQN [CTNND2_Y1157_P1159S_YF] in its proper category? Many thanks.
Result block: middle interval

Query block: Textbook exercise: identify the category of the sequence given here, TKAEKYVNKAK [PLCG1_Y991] , according to its measured value.
Result block: low interval

Query block: Where would AASHRYDLGGL [QPRT_Y162] land among the classes by reported phosphorylation enrichment?
Result block: low interval

Query block: // bin(item) where item = FEEDSYVTRSQ [RET_Y905_K907T_YF]
Result block: middle interval

Query block: Sort into band: LSCLAYSGKDA [FXN_Y205_S202C]
Result block: high interval

Query block: Class (by measured phosphorylation enrichment) for QTEAEYRFIYM [PTPN11_Y511_Q510E]
Result block: high interval

Query block: State the class of the sequence shown: PLTKVYVVEGS [ZMPSTE24_Y253]
Result block: middle interval

Query block: Band for the recorded phosphorylation enrichment of MDDDQYALLTT [EFCAB6_Y675] ?
Result block: high interval

Query block: Would you mind sorting QLQVFYATRDQ [MIPEP_Y579_L582R] into the appropriate category?
Result block: high interval

Query block: Record LKGQVYILGLE [ASS1_Y359_R363L] — which class?
Result block: high interval
